src = PubChem BioAssay AID1963871

# Test system: KRAS-mutant PDC multicell tumor spheroid viability;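 also: viability read after seven days of drug exposure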
# protocolDetails: Anticancer human tumor 521955-158-R2-J5-PDC patient-derived pancreatic carcinoma cell line growth inhibition [KRAS2]; active = viability on the fitted dose curve at most 10% of control; inactive = the rest
# conditionDetails: second compound 3.16 µM; first compound 3.16 µM
In this exercise, the only acceptable responses are active, inactive

input: Field: outcome | Entry: CC1(C)CCC(CN2CCN(c3ccc(C(=O)NS(=O)(=O)c4ccc(NCC5CCOCC5)c([N+](=O)[O-])c4)c(Oc4cnc5[nH]ccc5c4)c3)CC2)=C(c2ccc(Cl)cc2)C1 + CNCc1ccccc1-c1csc(C(C)Nc2nc(C)nc3cc(OC)c(OC)cc23)c1
output: active

input: Short answer needed: outcome of this test for O=C(c1cc(Cc2n[nH]c(=O)c3ccccc23)ccc1F)N1CCN(C(=O)C2CC2)CC1 + CC1OCC2(CCN(c3cnc(Sc4ccnc(N)c4Cl)c(N)n3)CC2)C1N ?
output: inactive

input: What is the recorded call for this compound in the test? COc1cc(Nc2ncc3c(n2)-c2ccc(Cl)cc2C(c2c(F)cccc2OC)=NC3)ccc1C(=O)O + CC1OCC2(CCN(c3cnc(Sc4ccnc(N)c4Cl)c(N)n3)CC2)C1N
output: inactive

input: Lab log entry: COc1cc(Nc2ncc3c(n2)-c2ccc(Cl)cc2C(c2c(F)cccc2OC)=NC3)ccc1C(=O)O + CNCc1ccccc1-c1csc(C(C)Nc2nc(C)nc3cc(OC)c(OC)cc23)c1 — outcome as called in the assay?
output: active

input: Please share the test call associated with COC(=O)c1ccc2c(C(=Nc3ccc(N(C)C(=O)CN4CCN(C)CC4)cc3)c3ccccc3)c(O)[nH]c2c1 + C=CC(=O)N1CCN(c2nc(=O)n(-c3c(C)ccnc3C(C)C)c3nc(-c4c(O)cccc4F)c(F)cc23)C(C)C1 .
output: active

input: Hello, I am checking results. What call was entered for CC1OCC2(CCN(c3cnc(Sc4ccnc(N)c4Cl)c(N)n3)CC2)C1N (stereo not given) + COc1cc2nc(C)nc(NC(C)c3cc(N)cc(C(F)(F)F)c3)c2cc1OC1CCOC1 ?
output: inactive

input: What did the test return for COc1cc2nccc(Oc3ccc(NC(=O)C4(C(=O)Nc5ccc(F)cc5)CC4)cc3)c2cc1OC + COc1cc2nc(C)nc(NC(C)c3cc(N)cc(C(F)(F)F)c3)c2cc1OC1CCOC1 ?
output: inactive

input: Hi team, can someone confirm the assay call for CC(=O)OC12COC1CC(O)C1(C)C(=O)C(O)C3=C(C)C(OC(=O)C(O)C(NC(=O)OC(C)(C)C)c4ccccc4)CC(O)(C(OC(=O)c4ccccc4)C21)C3(C)C (stereo not given) + CC1OCC2(CCN(c3cnc(Sc4ccnc(N)c4Cl)c(N)n3)CC2)C1N ?
output: inactive

input: Please share the test call associated with CC1(C)CCC(CN2CCN(c3ccc(C(=O)NS(=O)(=O)c4ccc(NCC5CCOCC5)c([N+](=O)[O-])c4)c(Oc4cnc5[nH]ccc5c4)c3)CC2)=C(c2ccc(Cl)cc2)C1 + C=CC(=O)N1CCN(c2nc(OCC3CCCN3C)nc3c2CCN(c2cccc4cccc(C)c24)C3)CC1CC#N .
output: active

input: For this compound, state the assay outcome: CC1OCC2(CCN(c3cnc(Sc4ccnc(N)c4Cl)c(N)n3)CC2)C1N (stereo not given) + C=CC(=O)N1CCN(c2nc(=O)n(-c3c(C)ccnc3C(C)C)c3nc(-c4c(O)cccc4F)c(F)cc23)C(C)C1
output: inactive
